Test system: influenza virus A/Hong Kong/8/68 (H3N2)
Assay: Cytopathic effect (CPE) inhibition assay, H3N2
Assay type: cell-based, influenza A/Hong Kong/8/68 (H3N2)
Settings: MDCK cells, MOI 0.005, 72 h, CellTiter-Glo
// IC50 lookup, one value per entry

{"compound": "O=C(O)C1C2CCC(CC2)C1Nc1nc(-n2c(=O)[nH]c3ncc(F)cc32)ncc1F (stereo not drawn)", "qualifierSign": "=", "IC50 [nM]": 40}
{"compound": "N=c1[nH]c2ncc(F)cc2n1-c1ncc(F)c(NC2C3CCC(CC3)C2C(=O)O)n1 (stereo not drawn)", "qualifierSign": "=", "IC50 [nM]": 70}
{"compound": "O=C(O)[C@H]1C2CCC(CC2)[C@@H]1Nc1nc(-c2c[nH]c3ncc(F)cc23)ncc1F [VX-787, pimodivir, reference compound]", "qualifierSign": "<", "IC50 [nM]": 3}

====

// IC50 lookup, one value per entry
Tested on: influenza virus A/Puerto Rico/8/1934 (H1N1)
Assay: Cytopathic effect (CPE) inhibition assay, H1N1
Format: cell-based, influenza A/Puerto Rico/8/1934 (H1N1)
Conditions: MDCK, 72 h, read-out: H1N1 IC50

{"compound": "O=C(O)[C@H]1C2CCC(CC2)[C@@H]1Nc1nc(-c2c[nH]c3ncc(F)cc23)ncc1F [VX-787, pimodivir, reference compound]", "qualifierSign": "<", "IC50 / nM": 3}
{"compound": "O=C(O)C1C2CCC(CC2)C1Nc1nc(-n2c(=O)[nH]c3ncc(F)cc32)ncc1F (stereo not drawn)", "qualifierSign": "=", "IC50 / nM": 70}
{"compound": "N=c1[nH]c2ncc(F)cc2n1-c1ncc(F)c(NC2C3CCC(CC3)C2C(=O)O)n1 (stereo not drawn)", "qualifierSign": "=", "IC50 / nM": 90}

====

Assay: in vitro
Conditions: dog

{"compound": "N=c1[nH]c2ncc(F)cc2n1-c1ncc(F)c(NC2C3CCC(CC3)C2C(=O)O)n1 (centres unmarked)", "CC50 at 72 h": "> 200 µM"}
{"compound": "O=C(O)C1C2CCC(CC2)C1Nc1nc(-n2c(=O)[nH]c3ncc(F)cc32)ncc1F (centres unmarked)", "CC50 at 72 h": "> 200 µM"}

The measurements presented in this section are drawn from paper PMC9960307.
